Reported IC50 is given for each of the following compounds.
Subject Of Test: HTR3A (5-HT3A) (Homo sapiens, UniProt P46098)
Sequence (P46098 24-478): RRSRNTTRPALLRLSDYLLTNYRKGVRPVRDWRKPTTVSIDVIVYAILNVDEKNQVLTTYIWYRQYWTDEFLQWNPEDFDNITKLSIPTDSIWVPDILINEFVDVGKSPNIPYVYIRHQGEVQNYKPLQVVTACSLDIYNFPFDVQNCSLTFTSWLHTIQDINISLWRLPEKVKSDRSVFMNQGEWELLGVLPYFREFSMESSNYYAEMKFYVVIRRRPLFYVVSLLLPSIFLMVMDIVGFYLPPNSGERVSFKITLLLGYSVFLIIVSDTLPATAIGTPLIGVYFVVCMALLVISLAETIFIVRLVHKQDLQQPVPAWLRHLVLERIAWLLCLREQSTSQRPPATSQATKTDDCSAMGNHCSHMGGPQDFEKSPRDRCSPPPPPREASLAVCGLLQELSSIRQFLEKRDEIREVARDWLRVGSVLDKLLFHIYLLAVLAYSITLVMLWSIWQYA
Experiment Description: cell-based
Observed Property: IC50 (nM)

smiles_input=CN(C)CCc1c[nH]c2cccc(OP(=O)(Oc3ccccc3)Oc3ccccc3)c12 observed_property=IC50 unit_text=nM quantitative_readout=2520
smiles_input=CN(C)CCc1c[nH]c2cccc(OC(=O)OCc3ccccc3)c12 observed_property=IC50 unit_text=nM quantitative_readout=2340

###

Subject Of Test: NMDAR (Homo sapiens, UniProt Q05586+Q13224)
Sequence (Q13224 27-1484, other chains not shown): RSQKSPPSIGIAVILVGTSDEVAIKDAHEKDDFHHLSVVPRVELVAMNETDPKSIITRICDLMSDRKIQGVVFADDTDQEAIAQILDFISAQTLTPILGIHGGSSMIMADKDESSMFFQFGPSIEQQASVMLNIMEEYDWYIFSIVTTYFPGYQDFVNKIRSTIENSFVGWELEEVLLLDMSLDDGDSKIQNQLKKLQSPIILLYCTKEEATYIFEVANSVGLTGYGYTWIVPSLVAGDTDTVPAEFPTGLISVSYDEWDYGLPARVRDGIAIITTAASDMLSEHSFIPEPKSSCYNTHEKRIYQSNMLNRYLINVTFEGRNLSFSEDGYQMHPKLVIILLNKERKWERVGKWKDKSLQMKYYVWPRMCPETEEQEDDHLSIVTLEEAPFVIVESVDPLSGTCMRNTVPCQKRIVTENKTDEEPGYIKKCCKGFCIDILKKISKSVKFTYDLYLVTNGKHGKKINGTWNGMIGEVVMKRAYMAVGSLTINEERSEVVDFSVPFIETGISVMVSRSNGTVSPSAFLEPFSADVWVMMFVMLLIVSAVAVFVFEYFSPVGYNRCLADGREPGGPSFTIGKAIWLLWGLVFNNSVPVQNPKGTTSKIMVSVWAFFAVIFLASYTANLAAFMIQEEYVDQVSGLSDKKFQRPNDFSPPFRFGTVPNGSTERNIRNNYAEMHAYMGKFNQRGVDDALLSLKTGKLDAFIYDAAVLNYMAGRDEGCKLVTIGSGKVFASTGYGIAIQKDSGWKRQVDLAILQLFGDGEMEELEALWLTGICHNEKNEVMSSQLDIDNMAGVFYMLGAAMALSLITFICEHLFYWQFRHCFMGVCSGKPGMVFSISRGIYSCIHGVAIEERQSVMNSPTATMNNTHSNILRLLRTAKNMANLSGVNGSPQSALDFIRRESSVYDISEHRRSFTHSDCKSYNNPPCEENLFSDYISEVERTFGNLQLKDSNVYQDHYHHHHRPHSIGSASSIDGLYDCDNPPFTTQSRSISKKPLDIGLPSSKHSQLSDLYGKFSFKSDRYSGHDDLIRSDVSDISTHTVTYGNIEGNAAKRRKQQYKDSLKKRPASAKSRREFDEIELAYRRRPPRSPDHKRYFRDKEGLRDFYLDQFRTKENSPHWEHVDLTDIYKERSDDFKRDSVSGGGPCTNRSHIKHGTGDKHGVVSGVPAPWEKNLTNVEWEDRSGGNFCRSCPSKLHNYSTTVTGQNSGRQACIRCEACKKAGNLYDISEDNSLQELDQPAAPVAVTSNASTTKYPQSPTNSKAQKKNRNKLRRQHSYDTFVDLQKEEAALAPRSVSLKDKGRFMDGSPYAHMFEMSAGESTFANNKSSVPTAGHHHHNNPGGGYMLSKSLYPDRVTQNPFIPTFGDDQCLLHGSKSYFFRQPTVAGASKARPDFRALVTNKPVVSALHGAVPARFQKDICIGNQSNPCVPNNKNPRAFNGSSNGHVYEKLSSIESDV
Experiment Description: cell-based
Conditions: NMDAR, ion channel, OP (opener); read-out: EC50
Listing: EC50 of selected compounds
Observed Property: EC50

smiles_input=CN(C)Cc1c[nH]c2cccc(O[Si](C)(C)C(C)(C)C)c12 observed_property=EC50 result="> 100 µM"
smiles_input=CCCCC(=O)OCOc1cccc2[nH]cc(CCN(C)C)c12 observed_property=EC50 result="> 100 µM"
smiles_input=CCCC(=O)OCOc1cccc2[nH]cc(CCN(C)C)c12 observed_property=EC50 result="> 100 µM"
smiles_input=CN(C)CCc1c[nH]c2cccc(OC(=O)OCC3CC3)c12 observed_property=EC50 result="> 100 µM"
smiles_input=CC(C)OC(=O)OCOc1cccc2c1c(CCN(C)C)cn2COC(=O)OC(C)C observed_property=EC50 result="> 100 µM"
smiles_input=CC(C)[Si](Oc1cccc2[nH]cc(CN(C)C)c12)(C(C)C)C(C)C observed_property=EC50 result="87.5 µM"

###

Subject Of Test: ADRA1A (Homo sapiens)
Sequence (P35348 whole entry): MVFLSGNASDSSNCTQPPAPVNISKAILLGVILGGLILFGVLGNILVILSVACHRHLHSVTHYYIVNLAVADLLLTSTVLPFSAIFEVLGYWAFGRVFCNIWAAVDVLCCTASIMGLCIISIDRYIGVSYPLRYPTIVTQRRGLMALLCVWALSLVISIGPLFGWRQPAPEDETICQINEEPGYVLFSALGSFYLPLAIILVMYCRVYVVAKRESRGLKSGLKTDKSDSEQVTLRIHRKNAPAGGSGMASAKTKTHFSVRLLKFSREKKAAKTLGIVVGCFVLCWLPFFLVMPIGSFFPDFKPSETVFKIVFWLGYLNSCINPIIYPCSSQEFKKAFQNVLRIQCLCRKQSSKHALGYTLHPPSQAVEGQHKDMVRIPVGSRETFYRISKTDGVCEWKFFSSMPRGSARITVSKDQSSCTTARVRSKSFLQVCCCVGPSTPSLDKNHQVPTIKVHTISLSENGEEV
Experiment Description: cell-based
pEC50: −log10 of the molar value.
Observed Property: pEC50

molecule="CN(C)CCc1c[nH]c2cccc(OC(=O)OCc3ccccc3)c12 [B(II)]" observed_property=pEC50 result="< 4.00"
molecule="CN(C)CCc1c[nH]c2cccc(OP(=O)(Oc3ccccc3)Oc3ccccc3)c12 [F(I)]" observed_property=pEC50 result="< 4.00"

###

Subject Of Test: NMDAR (Homo sapiens, UniProt Q05586+Q13224)
Experiment Description: cell-based
Quick list: IC50 per entry.
Observed Property: IC50

compound="CN(C)CCc1c[nH]c2cccc(OP(=O)(Oc3ccccc3)Oc3ccccc3)c12 [F(I)]" result="> 100 µM"
compound="CN(C)CCc1c[nH]c2cccc(OC(=O)OCc3ccccc3)c12 [B(II)]" result="16 µM"

###

Subject Of Test: HTR2A (Homo sapiens, UniProt P28223)
Sequence (P28223 whole entry): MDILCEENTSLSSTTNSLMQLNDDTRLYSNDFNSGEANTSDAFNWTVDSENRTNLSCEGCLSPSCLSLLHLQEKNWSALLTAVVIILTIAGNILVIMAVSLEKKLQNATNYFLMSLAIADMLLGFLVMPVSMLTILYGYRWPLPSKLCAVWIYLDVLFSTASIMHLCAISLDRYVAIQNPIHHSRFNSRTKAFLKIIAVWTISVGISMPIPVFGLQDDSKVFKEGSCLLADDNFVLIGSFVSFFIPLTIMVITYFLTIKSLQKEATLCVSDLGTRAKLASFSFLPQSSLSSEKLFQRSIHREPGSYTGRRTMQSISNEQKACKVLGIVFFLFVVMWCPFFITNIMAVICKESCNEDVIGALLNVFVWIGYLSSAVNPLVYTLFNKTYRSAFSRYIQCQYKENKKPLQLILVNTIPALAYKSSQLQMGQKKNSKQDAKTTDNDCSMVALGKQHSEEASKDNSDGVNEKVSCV
Experiment Description: cell-based
Observed Property: EC50

compound="CN(C)CCc1c[nH]c2cccc(OP(=O)(Oc3ccccc3)Oc3ccccc3)c12 [F(I)]" subject_of_test="HTR2A (Homo sapiens, UniProt P28223)" observed_property=EC50 result="> 100 µM"

###

Recorded EC50 by entry
Subject Of Test: UniProt P41143
Sequence (P41143 whole entry): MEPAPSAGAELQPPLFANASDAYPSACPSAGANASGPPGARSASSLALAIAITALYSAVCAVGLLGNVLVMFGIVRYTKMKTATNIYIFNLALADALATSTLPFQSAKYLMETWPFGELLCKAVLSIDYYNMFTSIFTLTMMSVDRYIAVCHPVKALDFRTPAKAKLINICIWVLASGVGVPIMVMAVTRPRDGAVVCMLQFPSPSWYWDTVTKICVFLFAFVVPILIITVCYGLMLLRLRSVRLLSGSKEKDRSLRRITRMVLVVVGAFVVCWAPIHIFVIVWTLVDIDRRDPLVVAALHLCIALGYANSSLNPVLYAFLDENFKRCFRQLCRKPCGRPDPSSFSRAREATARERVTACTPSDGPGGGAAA
Experiment Description: cell-based
Observed Property: EC50

compound="CN(C)CCc1c[nH]c2cccc(OP(=O)(Oc3ccccc3)Oc3ccccc3)c12 [F(I)]" result="> 100 µM"
compound="CN(C)CCc1c[nH]c2cccc(OC(=O)OCc3ccccc3)c12 [B(II)]" result="> 100 µM"
compound="CC(C)OC(=O)OCOc1cccc2c1c(CCN(C)C)cn2COC(=O)OC(C)C [D(XIII)]" result="> 100 µM"

###

Subject Of Test: HTR2B (5-HT2B) (Homo sapiens)
Sequence (P41595 whole entry): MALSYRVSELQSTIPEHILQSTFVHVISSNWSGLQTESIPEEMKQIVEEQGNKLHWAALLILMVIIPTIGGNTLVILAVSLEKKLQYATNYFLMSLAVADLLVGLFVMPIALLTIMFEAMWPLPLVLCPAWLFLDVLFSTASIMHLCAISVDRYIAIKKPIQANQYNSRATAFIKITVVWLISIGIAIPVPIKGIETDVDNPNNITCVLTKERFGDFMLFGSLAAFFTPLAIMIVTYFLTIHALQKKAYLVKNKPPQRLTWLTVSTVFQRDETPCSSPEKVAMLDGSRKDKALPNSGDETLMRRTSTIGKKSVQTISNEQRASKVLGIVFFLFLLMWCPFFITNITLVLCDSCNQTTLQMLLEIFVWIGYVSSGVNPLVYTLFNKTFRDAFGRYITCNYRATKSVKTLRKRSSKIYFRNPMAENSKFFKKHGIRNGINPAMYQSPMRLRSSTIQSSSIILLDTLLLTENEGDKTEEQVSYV
Experiment Description: cell-based
Conditions: HTR2B, GPCR, ANT (antagonist); read-out: IC50
pIC50: −log10 of the molar value.
Is pIC50 at least 6? Then criterion met. If not, criterion not met.

smiles_input=CN(C)CCc1c[nH]c2cccc(OC(=O)OCC3CC3)c12 discrete_label="criterion met"
smiles_input=CC(C)OC(=O)OCOc1cccc2c1c(CCN(C)C)cn2COC(=O)OC(C)C discrete_label="criterion not met"
smiles_input=CC(C)[Si](Oc1cccc2[nH]cc(CN(C)C)c12)(C(C)C)C(C)C discrete_label="criterion not met"
smiles_input=CCCCC(=O)OCOc1cccc2[nH]cc(CCN(C)C)c12 discrete_label="criterion met"
smiles_input=CCCC(=O)OCOc1cccc2[nH]cc(CCN(C)C)c12 discrete_label="criterion met"

###

Subject Of Test: ADRA2A (Homo sapiens)
Sequence (P08913 1-465): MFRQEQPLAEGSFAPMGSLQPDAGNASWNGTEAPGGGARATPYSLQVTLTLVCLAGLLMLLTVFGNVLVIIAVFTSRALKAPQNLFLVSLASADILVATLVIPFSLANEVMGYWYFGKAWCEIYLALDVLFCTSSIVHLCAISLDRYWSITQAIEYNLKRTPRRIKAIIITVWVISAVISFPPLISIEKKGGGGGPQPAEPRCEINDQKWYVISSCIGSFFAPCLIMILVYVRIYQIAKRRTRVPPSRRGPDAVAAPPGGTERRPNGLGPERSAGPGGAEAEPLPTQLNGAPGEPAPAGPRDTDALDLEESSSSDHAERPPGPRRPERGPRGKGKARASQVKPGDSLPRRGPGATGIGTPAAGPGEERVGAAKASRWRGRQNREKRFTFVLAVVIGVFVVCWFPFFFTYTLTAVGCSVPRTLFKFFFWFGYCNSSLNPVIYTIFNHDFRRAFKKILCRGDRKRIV
Experiment Description: cell-based
pEC50: −log10 of the molar value.
Listed next: entries and their corresponding pEC50.
Observed Property: pEC50

smiles_input=CN(C)CCc1c[nH]c2cccc(OP(=O)(Oc3ccccc3)Oc3ccccc3)c12 subject_of_test="ADRA2A (Homo sapiens)" observed_property=pEC50 result="< 4.00"
smiles_input=CN(C)CCc1c[nH]c2cccc(OC(=O)OCc3ccccc3)c12 subject_of_test="ADRA2A (Homo sapiens)" observed_property=pEC50 result="< 4.00"

###

Subject Of Test: DRD1 (Homo sapiens, UniProt P21728)
Sequence (P21728 whole entry): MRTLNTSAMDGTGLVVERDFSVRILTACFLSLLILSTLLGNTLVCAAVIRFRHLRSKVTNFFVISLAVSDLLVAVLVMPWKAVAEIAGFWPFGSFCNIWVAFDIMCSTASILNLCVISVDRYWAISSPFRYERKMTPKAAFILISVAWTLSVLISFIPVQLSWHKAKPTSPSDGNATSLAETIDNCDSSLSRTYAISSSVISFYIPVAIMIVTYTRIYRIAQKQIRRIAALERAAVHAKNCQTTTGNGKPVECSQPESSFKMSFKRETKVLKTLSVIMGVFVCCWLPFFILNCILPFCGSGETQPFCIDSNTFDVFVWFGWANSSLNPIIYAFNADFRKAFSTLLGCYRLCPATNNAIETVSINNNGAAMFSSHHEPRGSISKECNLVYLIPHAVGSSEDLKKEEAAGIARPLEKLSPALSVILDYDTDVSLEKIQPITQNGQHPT
Experiment Description: cell-based
Observed Property: EC50

smiles_input=CN(C)CCc1c[nH]c2cccc(OC(=O)OCc3ccccc3)c12 observed_property=EC50 result="> 100 µM"
smiles_input=CN(C)CCc1c[nH]c2cccc(OP(=O)(Oc3ccccc3)Oc3ccccc3)c12 observed_property=EC50 result="> 100 µM"

###

Subject Of Test: DRD1 (Homo sapiens)
Experiment Description: cell-based
Conditions: DRD1, GPCR, ANT (antagonist); read-out: IC50
Observed Property: IC50

compound="CC(C)OC(=O)OCOc1cccc2c1c(CCN(C)C)cn2COC(=O)OC(C)C [D(XIII)]" observed_property=IC50 result="> 100 µM"
compound="CCCC(=O)OCOc1cccc2[nH]cc(CCN(C)C)c12 [D(IV)]" observed_property=IC50 result="49.5 µM"
compound="CCCCC(=O)OCOc1cccc2[nH]cc(CCN(C)C)c12 [D(III)]" observed_property=IC50 result="32.2 µM"
compound="CN(C)CCc1c[nH]c2cccc(OC(=O)OCC3CC3)c12 [B(III)]" observed_property=IC50 result="13.3 µM"
compound="CN(C)Cc1c[nH]c2cccc(O[Si](C)(C)C(C)(C)C)c12 [A(IV)]" observed_property=IC50 result="10.9 µM"
compound="CC(C)[Si](Oc1cccc2[nH]cc(CN(C)C)c12)(C(C)C)C(C)C [A(V)]" observed_property=IC50 result="9.67 µM"

###

Subject Of Test: CHRM2 (Homo sapiens, UniProt P08172)
Sequence (P08172 whole entry): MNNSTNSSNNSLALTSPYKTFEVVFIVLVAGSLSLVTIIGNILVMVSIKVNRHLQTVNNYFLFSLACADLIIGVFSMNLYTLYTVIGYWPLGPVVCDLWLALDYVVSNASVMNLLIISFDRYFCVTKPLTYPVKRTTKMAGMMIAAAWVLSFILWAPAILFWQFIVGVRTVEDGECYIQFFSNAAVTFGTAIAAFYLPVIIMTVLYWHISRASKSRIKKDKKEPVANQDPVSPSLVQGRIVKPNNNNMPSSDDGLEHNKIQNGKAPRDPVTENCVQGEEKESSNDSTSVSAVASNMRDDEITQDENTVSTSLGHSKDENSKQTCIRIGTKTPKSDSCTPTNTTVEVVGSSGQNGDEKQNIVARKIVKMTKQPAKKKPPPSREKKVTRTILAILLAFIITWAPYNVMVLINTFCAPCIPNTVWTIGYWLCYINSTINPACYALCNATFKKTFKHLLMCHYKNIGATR
Experiment Description: cell-based
Conditions: CHRM2, GPCR, ANT (antagonist); read-out: IC50
Observed Property: IC50

smiles_input=CC(C)[Si](Oc1cccc2[nH]cc(CN(C)C)c12)(C(C)C)C(C)C subject_of_test="CHRM2 (Homo sapiens, UniProt P08172)" result="> 100 µM"
smiles_input=CC(C)OC(=O)OCOc1cccc2c1c(CCN(C)C)cn2COC(=O)OC(C)C subject_of_test="CHRM2 (Homo sapiens, UniProt P08172)" result="66.5 µM"
smiles_input=CCCC(=O)OCOc1cccc2[nH]cc(CCN(C)C)c12 subject_of_test="CHRM2 (Homo sapiens, UniProt P08172)" result="> 100 µM"
smiles_input=CCCCC(=O)OCOc1cccc2[nH]cc(CCN(C)C)c12 subject_of_test="CHRM2 (Homo sapiens, UniProt P08172)" result="> 100 µM"
smiles_input=CN(C)CCc1c[nH]c2cccc(OC(=O)OCC3CC3)c12 subject_of_test="CHRM2 (Homo sapiens, UniProt P08172)" result="> 100 µM"
smiles_input=CN(C)Cc1c[nH]c2cccc(O[Si](C)(C)C(C)(C)C)c12 subject_of_test="CHRM2 (Homo sapiens, UniProt P08172)" result="> 100 µM"
